System: FXR:RXRa (NR concentration 270 nM, RXRa partner concentration 90 nM)
Assay: PBM binding z-score (relative to random genomic background probes); higher = stronger binding; sequences stand for … in GC…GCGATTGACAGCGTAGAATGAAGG
measured attribute: PBM binding z-score
Just the number, please, no unit after it.

Some sequences with recorded PBM binding z-score:
* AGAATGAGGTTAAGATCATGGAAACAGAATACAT | 2.01
* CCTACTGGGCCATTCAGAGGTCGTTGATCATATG | 0.36
* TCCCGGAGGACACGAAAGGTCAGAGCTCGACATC | 3.13

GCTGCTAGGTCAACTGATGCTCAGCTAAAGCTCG has a reported PBM binding z-score of 4.03

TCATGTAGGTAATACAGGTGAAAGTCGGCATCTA has a reported PBM binding z-score of 0.0966

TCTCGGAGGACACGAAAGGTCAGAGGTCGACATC has a reported PBM binding z-score of 3.84

* * *

Tested on: PPARg:RXRa 90nM:30nM, anti-RXR (NR concentration 90 nM, RXRa partner concentration 30 nM)
Assay: PBM binding z-score (relative to random genomic background probes); higher = stronger binding; sequences stand for … in GC…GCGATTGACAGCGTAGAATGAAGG
Mark no (0) for PBM binding z-score values under 2, and yes (1) for everything at or above.

* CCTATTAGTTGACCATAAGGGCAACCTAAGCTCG | no (0)
* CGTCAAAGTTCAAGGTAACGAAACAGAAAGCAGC | yes (1)
* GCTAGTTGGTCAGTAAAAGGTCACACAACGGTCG | yes (1)
* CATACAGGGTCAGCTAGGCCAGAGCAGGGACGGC | no (0)
* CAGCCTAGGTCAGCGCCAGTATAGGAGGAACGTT | no (0)

Could you verify whether the entry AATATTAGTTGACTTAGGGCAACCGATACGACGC shows PBM binding z-score of no less than 2?
no (0)

* * *

// reported PBM binding z-score for each item listed
Test system: THRa homodimer (NR concentration 90 nM)
Experiment: PBM binding z-score (relative to random genomic background probes); higher = stronger binding; sequences stand for … in GC…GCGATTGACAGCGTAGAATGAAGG
Just the number, please, no unit after it.

- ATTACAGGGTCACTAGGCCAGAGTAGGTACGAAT: 1.5
- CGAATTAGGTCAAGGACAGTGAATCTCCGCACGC: 2.81
- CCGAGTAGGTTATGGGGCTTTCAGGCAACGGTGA: 0.657

ATCTCTAGGTAAAAGTTCCGTGAATCCCGAGGAT has a reported PBM binding z-score of 0.302

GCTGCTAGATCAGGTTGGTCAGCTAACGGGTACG has a reported PBM binding z-score of -0.864

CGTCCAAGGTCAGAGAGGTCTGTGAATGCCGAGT has a reported PBM binding z-score of 1.64

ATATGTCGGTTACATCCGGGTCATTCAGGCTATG has a reported PBM binding z-score of 2.52

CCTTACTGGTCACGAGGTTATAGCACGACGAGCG has a reported PBM binding z-score of 1.11

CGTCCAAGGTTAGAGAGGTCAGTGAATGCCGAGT has a reported PBM binding z-score of 1.3

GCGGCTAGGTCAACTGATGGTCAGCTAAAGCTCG has a reported PBM binding z-score of 0.698

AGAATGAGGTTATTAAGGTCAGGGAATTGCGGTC has a reported PBM binding z-score of 5.16

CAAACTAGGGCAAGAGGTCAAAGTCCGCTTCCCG has a reported PBM binding z-score of 1.23

* * *

Tested on: RARb homodimer (NR concentration 270 nM)
Assay: PBM binding z-score (relative to random genomic background probes); higher = stronger binding; sequences stand for … in GC…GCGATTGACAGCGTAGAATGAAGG
Mark -1 for PBM binding z-score values under 2, and 1 for everything at or above.

Worked cases, answers included:
• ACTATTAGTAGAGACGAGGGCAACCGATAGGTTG = -1
• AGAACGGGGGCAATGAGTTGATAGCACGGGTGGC = -1
• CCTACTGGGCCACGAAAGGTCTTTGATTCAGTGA = -1
• TCGAGTAGGTTACCAATGGAGCATTCAGCTTTCT = -1
• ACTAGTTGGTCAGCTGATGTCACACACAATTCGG = -1

Could you verify whether the entry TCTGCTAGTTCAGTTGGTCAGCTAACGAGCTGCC shows PBM binding z-score of no less than 2?
-1

* * *

Test system: THRa homodimer (NR concentration 90 nM)
Assay: PBM binding z-score (relative to random genomic background probes); higher = stronger binding; sequences stand for … in GC…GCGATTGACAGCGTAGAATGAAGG
measured attribute: PBM binding z-score
Just the number, please, no unit after it.

Some sequences with recorded PBM binding z-score:
* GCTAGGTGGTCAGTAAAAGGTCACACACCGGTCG | 1.73
* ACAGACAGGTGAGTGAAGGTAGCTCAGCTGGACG | -0.539
* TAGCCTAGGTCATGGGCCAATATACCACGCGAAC | 1.43
* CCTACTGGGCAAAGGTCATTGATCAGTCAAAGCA | 0.287
* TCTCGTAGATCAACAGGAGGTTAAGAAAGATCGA | -0.325

Below: the item to evaluate.
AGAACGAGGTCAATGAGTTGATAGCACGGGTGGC has a reported PBM binding z-score of 2.08

* * *

System: PPARg:RXRa 270nM:90nM, anti-RXR (NR concentration 270 nM, RXRa partner concentration 90 nM)
Assay: PBM binding z-score (relative to random genomic background probes); higher = stronger binding; sequences stand for … in GC…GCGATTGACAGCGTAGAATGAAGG
Mark criterion not met for PBM binding z-score values under 2, and criterion met for everything at or above.

* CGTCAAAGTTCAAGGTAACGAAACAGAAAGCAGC | criterion met
* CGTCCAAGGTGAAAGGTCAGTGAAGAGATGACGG | criterion met

Could you verify whether the entry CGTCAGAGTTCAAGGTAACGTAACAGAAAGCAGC shows PBM binding z-score of no less than 2?
criterion met

Could you verify whether the entry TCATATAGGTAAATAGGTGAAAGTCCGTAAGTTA shows PBM binding z-score of no less than 2?
criterion met

Could you verify whether the entry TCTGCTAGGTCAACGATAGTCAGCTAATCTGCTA shows PBM binding z-score of no less than 2?
criterion met

Could you verify whether the entry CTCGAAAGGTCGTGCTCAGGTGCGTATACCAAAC shows PBM binding z-score of no less than 2?
criterion met

Could you verify whether the entry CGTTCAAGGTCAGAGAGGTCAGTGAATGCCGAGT shows PBM binding z-score of no less than 2?
criterion met

Could you verify whether the entry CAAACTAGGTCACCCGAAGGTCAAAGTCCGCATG shows PBM binding z-score of no less than 2?
criterion met

Could you verify whether the entry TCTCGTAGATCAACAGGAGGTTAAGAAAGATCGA shows PBM binding z-score of no less than 2?
criterion not met

Could you verify whether the entry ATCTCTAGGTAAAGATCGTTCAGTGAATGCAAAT shows PBM binding z-score of no less than 2?
criterion not met

Could you verify whether the entry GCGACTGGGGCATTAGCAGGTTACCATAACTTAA shows PBM binding z-score of no less than 2?
criterion not met

* * *

// reported PBM binding z-score for each item listed
Tested on: RXRa DBDmut IVT, anti-RXR (DBD mutation: RXRa K156A/R161A, NR concentration 90 nM)
Assay: PBM binding z-score (relative to random genomic background probes); higher = stronger binding; sequences stand for … in GC…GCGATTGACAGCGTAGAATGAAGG
Just the number, please, no unit after it.

Some sequences with recorded PBM binding z-score:
• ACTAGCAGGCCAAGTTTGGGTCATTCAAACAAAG = -0.125
• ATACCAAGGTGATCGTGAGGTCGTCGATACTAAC = 0.301
• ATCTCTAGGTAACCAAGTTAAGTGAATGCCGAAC = -0.119
• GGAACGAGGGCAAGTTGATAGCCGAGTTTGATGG = 2.37
• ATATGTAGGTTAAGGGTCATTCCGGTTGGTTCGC = 2.44
• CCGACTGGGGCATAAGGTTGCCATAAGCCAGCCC = -0.617
• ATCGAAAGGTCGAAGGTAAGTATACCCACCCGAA = 0.89
• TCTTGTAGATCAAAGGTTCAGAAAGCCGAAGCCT = 1.32
• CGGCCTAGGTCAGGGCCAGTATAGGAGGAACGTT = -0.731
• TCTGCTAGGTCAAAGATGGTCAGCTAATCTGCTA = 1.31

Record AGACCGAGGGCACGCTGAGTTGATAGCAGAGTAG / RXRa DBDmut IVT, anti-RXR (DBD mutation: RXRa K156A/R161A, NR concentration 90 nM), PBM binding z-score recorded as 1.49

Record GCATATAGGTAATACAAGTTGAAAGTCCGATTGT / RXRa DBDmut IVT, anti-RXR (DBD mutation: RXRa K156A/R161A, NR concentration 90 nM), PBM binding z-score recorded as 0.331
